- System: HuH7 cells
- Protocol text: MTT antiproliferative (growth inhibition) assay on HuH7 cells
- Format: cell-based, human
- Condition context: Homo sapiens, Huh-7, MTT, 72 h incubation, mean and SD of 3 or more independent determinations (Tables 1-8), read-out: IC 50
Result type: IC50 (µM)

Worked cases, IC50 given:
Compound | IC50 (µM)
NS(=O)(=O)c1cccc(C=C2C(=O)Nc3ccc(Cl)cc32)c1 [Compound 2-12] | 9.66
O=C1Nc2ccc(F)c(F)c2/C1=C/c1ccc(F)cc1 [Compound 6-4] | 14
Cc1cccc(/C=C2/C(=O)Nc3cc(Cl)ccc32)c1 [Compound 1-5] | 11
O=C1Nc2cc(F)ccc2/C1=C\c1ccc(C(F)(F)F)cc1 [Compound 3-7] | 8.42

a = O=C1Nc2cc(Cl)ccc2C1=Nc1cccc(C(F)(F)F)c1 [Compound 8-4]
b = CS(=O)(=O)c1cccc(/C=C2/C(=O)Nc3cc(F)ccc32)c1 [Compound 3-9]
// select label with min value of measured IC50 from [ a , b ] // caller expects the label of the chosen entry
b
